- PROCEDURE_SUMMARY: M. tuberculosis growth inhibition, HTS (AID 449762);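 also: bacterial growth assessed after seven days of incubation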
- REPORTED_CONDITIONS: M. tuberculosis H37Rv growth inhibition, 7H9 media; at 25 µM; active compounds read high
Screen size: about 330,000 compounds; about 1,900 (0.58%) were called active. Inconclusive results (about 4%) are left out. Not all results are given here. Measured potencies and affinities stand elsewhere.
inhibition by entry:

{"MOLECULE": "COCCN1C(=O)C(=O)/C(=C(/O)c2ccc(S(=O)(=O)N3CCCCC3)cc2)C1c1ccc(O)c(OC)c1 (stereo not drawn)", "inhibition, %": -2.3}
{"MOLECULE": "CSc1ccccc1NC(=O)CN(C)CC(=O)c1[nH]c(C)c(C(C)=O)c1C", "inhibition, %": -0.15}
{"MOLECULE": "COc1ccc(C(CC(=O)c2ccccc2)S(=O)(=O)c2ccccc2)cc1 (stereo not drawn)", "inhibition, %": 21.9}
{"MOLECULE": "Cc1nn(Cc2ccc(C(=O)NN)o2)c(C)c1Cl", "inhibition, %": -6.65}
{"MOLECULE": "O=C(Nc1cccc(F)c1)N1CCN(C/C=C/c2ccccc2)CC1", "inhibition, %": -4.24}
{"MOLECULE": "COc1cc(/C=N\\NC(=O)c2ccc(Cn3nc([N+](=O)[O-])c(Cl)c3C)o2)ccc1O", "inhibition, %": -5.71}
{"MOLECULE": "O=C(COc1cc(O)c2c(=O)cc(-c3ccccc3)oc2c1)c1ccccc1", "inhibition, %": -3.97}
{"MOLECULE": "N#C/C(=C/c1ccccc1[N+](=O)[O-])C(=O)NCc1ccco1", "inhibition, %": -4.24}
{"MOLECULE": "Cc1ccc(OCCCCNC(C)c2ccccc2)c(C)c1 (stereo not drawn)", "inhibition, %": 7.81}
{"MOLECULE": "COc1ccc(C2C(C#N)=C(N)N(N(C)C)C3=C2C(=O)CC(C)(C)C3)cc1OC (stereo not drawn)", "inhibition, %": 7.78}
{"MOLECULE": "CN1CCN(CCCN2c3ccccc3Sc3ccc(S(=O)(=O)N(C)C)cc32)CC1", "inhibition, %": 7.63}
{"MOLECULE": "CCN(C(=O)Cc1c(C(=O)O)n(C)c2ccccc12)c1cc(OC)ccc1OC", "inhibition, %": -7.09}
{"MOLECULE": "Cc1cc(C)n2c(Br)c(CN3CCCC(C)C3)nc2n1 (stereo not drawn)", "inhibition, %": -0.64}
{"MOLECULE": "CC1(c2cccc([N+](=O)[O-])c2)CC(C)(C)N(C(=O)c2ccccc2)c2ccccc21 (stereo not drawn)", "inhibition, %": 1.14}
{"MOLECULE": "CS(=O)(=O)N1c2ccccc2[C@]2([C@@]34C[C@H]5C(=O)N[C@@H](Cc6ccccc6)C(=O)N5[C@@H]3N(S(C)(=O)=O)c3ccccc34)C[C@H]3C(=O)N[C@@H](Cc4ccccc4)C(=O)N3[C@H]12", "inhibition, %": -2.63}
{"MOLECULE": "CCC(CC)NC(=O)c1cc2c(C)nn(Cc3ccccc3Cl)c2s1", "inhibition, %": -1.27}
{"MOLECULE": "COc1ccc(C(=O)CC(c2ccccc2)S(=O)(=O)c2ccc(C)cc2)cc1 (stereo not drawn)", "inhibition, %": 11.8}
{"MOLECULE": "O=C(COC(=O)c1ccc2c(c1)OCCO2)Nc1cccc(S(=O)(=O)N2CCOCC2)c1", "inhibition, %": 9.61}
{"MOLECULE": "N#CCc1nc2ccc(S(=O)(=O)N3CCOCC3)cc2s1", "inhibition, %": -0.38}
{"MOLECULE": "Cc1ccnc(N/C=C(/NC(=O)c2ccccc2)C(=O)NN)n1", "inhibition, %": 2.37}
{"MOLECULE": "Oc1ccc(C2=CCNCC2)cc1O", "inhibition, %": -1.15}
{"MOLECULE": "Cc1cc(C)cc(NC(=O)N2CCN(C/C=C/c3ccccc3)CC2)c1", "inhibition, %": 6.44}
{"MOLECULE": "Cc1c(Cl)c([N+](=O)[O-])nn1Cc1ccc(C(=O)N/N=C\\c2ccccn2)o1", "inhibition, %": 0.01}
{"MOLECULE": "COCCOc1cc(NC(=O)c2ccccc2)c(Cl)cc1Cl", "inhibition, %": 15}
{"MOLECULE": "Cc1nc(CSc2ccc(Cl)cc2)cc(N2CCOCC2)n1", "inhibition, %": 0.76}
{"MOLECULE": "CCOc1ccc2nc(SCC(=O)Nc3ccc(S(=O)(=O)N4CCCC4)cc3)c(C)cc2c1", "inhibition, %": 1.42}
{"MOLECULE": "O=C(Nc1ccc(N2CCN(C(=O)c3cccs3)CC2)cc1)c1ccccc1Cl", "inhibition, %": 1.86}
{"MOLECULE": "Cc1ccc(-n2c(Cl)c(Cl)[nH]c(=O)c2=O)cc1", "inhibition, %": -6.67}
{"MOLECULE": "O=C(OCC(=O)N1CCN(C(=O)c2ccco2)CC1)c1cc(-c2ccco2)nc2ccccc12", "inhibition, %": 6.06}
{"MOLECULE": "COc1ccc(NC(=O)Cn2c(=O)n(-c3ccccc3)c(=O)c3oc4ccccc4c32)c(OC)c1", "inhibition, %": -0.2}
{"MOLECULE": "COC(=O)c1c(C)oc(C)c1S(=O)(=O)N1CCOCC1", "inhibition, %": -2.09}
{"MOLECULE": "COc1cccc(CNC(=O)Cn2ccc([N+](=O)[O-])n2)c1", "inhibition, %": -0.85}
{"MOLECULE": "O=C(OCC(=O)N1CCN(C(=O)c2ccco2)CC1)c1cc(-c2ccc(Cl)c(Cl)c2Cl)nc2ccccc12", "inhibition, %": 4.98}
{"MOLECULE": "CCOc1ccc(NC(=O)CCC(=O)Nc2cc(OC)c(NC(=O)c3ccco3)cc2OC)cc1", "inhibition, %": 20.8}
{"MOLECULE": "CC(C)(C)OC(=O)COc1cc(O)c2c(=O)cc(-c3ccccc3)oc2c1", "inhibition, %": 39.4}
{"MOLECULE": "CCCOc1ccc(NC2=CC(=O)CC(C)(C)C2)cc1", "inhibition, %": 0.84}
{"MOLECULE": "Cc1ccc(CNC(=O)c2ccc(Cn3nc(C)c(Cl)c3C)o2)cc1", "inhibition, %": -10.1}
{"MOLECULE": "NC(=O)c1c(NC(=O)CSc2nnc(Cc3ccccc3)n2Cc2ccco2)sc2c1CCC2", "inhibition, %": 55.7}

Where these numbers come from: PubChem BioAssay AID449762
